# testDetails: Cytotoxicity assay
# Assay type: cell-based
# condition: human, uninfected HFF cells
Some molecules, each annotated with its measured IC50 at 48 h.
Write the number in µM without appending the unit.

Solved entries:
O=C(NC(=O)c1ccc(F)c(F)c1F)OC12CC3CC(CC(C3)C1)C2 | 65.5
CC(C)=CCC/C(C)=C/CNC(=O)NC(=O)c1ccc(F)c(F)c1F | 62.6
COc1ccccc1C(=O)NC(=O)NC(=O)c1ccccc1OC [JS-1-09, N,N′-Carbonylbis(2-methoxybenzamide)] | 64

Please report the recorded IC50 at 48 h for O=C(NC(=O)c1ccc(F)c(F)c1F)OC1C2CC3CC(C2)CC1C3 (stereo not shown) .
59.2

====

Entries and their selectivity ratio at 48 h values follow.
# Tested on: T. gondii
# testDetails: T. gondii growth inhibitory assay
# Format: cell-based, Toxoplasma gondii
# condition: human, Selectivity index (SI) = Cytotoxicity IC50/Anti-parasitic IC50, HFF cytotoxicity IC50 / anti-Toxoplasma IC50
API doc: respond with a numeric literal and nothing else, no unit.

Please review the following examples before continuing.
CC(C)=CCC/C(C)=C/CNC(=O)NC(=O)c1ccc(F)c(F)c1F | 5.7
O=C(NC(=O)c1ccc(F)c(F)c1F)OC1C2CC3CC(C2)CC1C3 (stereo not shown) | 5.6

Here is the next item to consider.
So what does the record say about selectivity ratio at 48 h for `O=C(NC(=O)c1ccc(F)c(F)c1F)OC12CC3CC(CC(C3)C1)C2` ?
5.4

====

# Test system: C. parvum
# testDetails: C. parvum growth inhibitory assay
# Type: cell-based, Cryptosporidium parvum
# condition: human, Selectivity index (SI) = Cytotoxicity IC50/Anti-parasitic IC50, HCT-8 cytotoxicity IC50 / anti-Cryptosporidium IC50
observable: selectivity ratio at 72 h

Look up selectivity ratio at 72 h for this compound: `CC(C)=CCC/C(C)=C\COC(=O)NC(=O)C12CC3CC(CC(C3)C1)C2`
~14
